Assay: Tissue distribution after acute oral administration
Type: in vivo, mouse
Details: male, C57Bl/6J, mouse, liver / plasma; 1 mg/kg PO, 1 h post-acute administration; read-out: liver/plasma (L/P) ratio
Experimental: Male C57Bl/6J mice aged 7–9 weeks (3–4 mice per compound) were fasted overnight before administering each test compound. The compounds were accurately weighed and mixed with an appropriate vehicle to prepare a clear oral solution. The formulations were freshly prepared on the dosing day, and the mice were administered the compound via oral gavage within 4 h of formulation preparation. […] calculated using the equation: […]
Readout: Kp at 1 h
Number, no unit, nothing else.

Which Kp at 1 h reading was recorded for the molecule Cc1c(C(=O)NN2CCCCC2)nn(-c2ccc(Cl)cc2Cl)c1-c1ccc(Cl)cc1 [rimonabant] ?
7.4
